ASSAY_PROCEDURE: RAM signaling pathway blockade in yeast – S. cerevisiae, Pdr1DBD-CYC8 efflux-inhibited sensitized strain, primary screen (AID 1298);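 also: 0% = DMSO untreated cells without growth and 100% = 10 µM 1-NA-PP1 full growth; higher means more yeast growth rescued from 5-FOA killing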
RECORDED_CONDITIONS: S. cerevisiae cbk1-as DSE1-URA3 strain, 5-FOA growth OD615, 2 d; at 50 µM; stronger effect = higher value
METRIC: RAM network inhibition (%)
One number for each entry, in %.

Use the examples below as a reference point.
>  <MOLECULE>
CCC(Sc1ccc2nnc(-c3cccnc3)n2n1)C(=O)O (centres undefined)

>  <RAM network inhibition, %>
6.69

$$$$
>  <MOLECULE>
COc1ccc(OC)c2[nH]c(=O)c(CCNC(=O)c3cc4ccccc4o3)cc12

>  <RAM network inhibition, %>
7.96

$$$$
>  <MOLECULE>
CCOc1ccccc1Nc1nc2ccccc2n2cnnc12

>  <RAM network inhibition, %>
6.66

$$$$

Next molecule, RAM network inhibition to be filled in.
Request: Give the measured RAM network inhibition of CC1(C)CC(=O)C2=C(C1)Nc1ccccc1NC2c1ccccn1 (centres undefined) .
Response: 3.12

* * *

ASSAY_PROCEDURE: OD615 S. cerevisiae growth inhibition, permissive medium, pilot counter-assay, permissive growth control for S. cerevisiae lifespan shortening project (AID 705)
RECORDED_CONDITIONS: OD615, 24 h, at 10 µM, stronger effect = higher value
METRIC: growth inhibition (%)
Give bare numbers, in %.

Use the examples below as a reference point.
>  <MOLECULE>
COc1cc(NC(=O)C2CC2)c(C(=O)O)cc1OC

>  <MEASUREMENT>
-3.4

$$$$
>  <MOLECULE>
COc1ccc(OCCSc2ncnc3nc[nH]c23)cc1

>  <MEASUREMENT>
2.66

$$$$
>  <MOLECULE>
Cc1nnc2ccc(N3CCN(C(=O)c4ccccc4)CC3)nn12

>  <MEASUREMENT>
-4.49

$$$$

I'm hoping you can list growth inhibition for every molecule here, please.
1. Cc1nn(-c2ccccc2)c2sc(C(=O)n3cccn3)cc12
2. Cc1ccc2c(c1)c1c(n2CC(O)Cn2c(C)nc3ccccc32)C(=O)CCC1 (stereo not drawn)
3. Cc1cccc(C)c1NC(=O)C1(NC(=O)c2cnccn2)CCCCC1
4. Cc1ccc(S(=O)(=O)N2CCN(C(=O)CCC(=O)N3CCc4ccccc43)CC2)cc1

Response:
1. -10.7
2. -7.12
3. -12.1
4. -2.18

I'm hoping you can list growth inhibition for every molecule here, please.
1. CC1Cc2ccccc2N1C(=O)Cn1cnc2ccccc2c1=O (stereo not drawn)
2. COCCn1c(=O)[nH]c2cc(C(=O)NCC3CCCO3)ccc2c1=O (stereo not drawn)
3. CCCOC(=O)c1ccc(OCC(O)CN2C(=O)NC(C)(C)C2=O)cc1 (stereo not drawn)

Response:
1: 3.42; 2: -6.33; 3: 1.83

I'm hoping you can list growth inhibition for every molecule here, please.
1. Cc1noc(C(=O)Nc2c(C)n(C)n(-c3ccccc3)c2=O)c1Cl
2. COC(=O)CCC(=O)Nc1nc(-c2ccccc2)cs1
3. CCN1C(=S)SC(=O)C1=C1C=C(C)OC(C)=C1
4. CCCCCn1c(N2CCC(Cc3ccccc3)CC2)nc2c1c(=O)[nH]c(=O)n2C
5. COC(=O)c1cnn2c(C)c(Cc3cccc(F)c3)c(C)nc12

Response:
1: -13.3; 2: -18.5; 3: -11; 4: -14.9; 5: -5.12

I'm hoping you can list growth inhibition for every molecule here, please.
1. CCOc1cc(C2CC(=O)NC(SCC)=C2C#N)ccc1O (stereo not drawn)
2. Cc1ccc(N=Cc2c(O)n(C)c(=O)n(C)c2=O)nc1
3. CC1(C)CC2(CC(C)(C)N1)OC(=O)N1CCc3ccccc3C12C (stereo not drawn)
4. COc1ccc(NC(=O)C2CCCN2S(=O)(=O)c2ccc(F)cc2)cc1 (stereo not drawn)
5. c1ccc(-c2noc(-c3cccnc3)n2)cc1
6. Cc1c(C(=O)NCC2COc3ccccc3O2)oc2ccc(S(=O)(=O)N3CCOCC3)cc12 (stereo not drawn)
7. CCC(=O)c1cc(F)c(N2CCN(S(=O)(=O)c3ccccc3)CC2)cc1C
8. N#Cc1c(N)nc2c(c1-c1ccc3c(c1)OCO3)CCCCCC2

Response:
[-16.8, 5.8, -4.17, -11.8, 5.9, -22, -21.4, -18]

I'm hoping you can list growth inhibition for every molecule here, please.
1. Fc1ccc(Nc2nc(N3CCOCC3)c3ccccc3n2)cc1
2. CCOC(=O)/C=c1\sc2n(c1=O)CCN=2
3. CC(=O)Oc1ccc(N2C(=O)C3C(C2=O)C2(C)C=CC3(C)O2)cc1 (stereo not drawn)
4. CCc1ccc(NC(=O)CSc2nnc(Cc3cccn3C)n2-c2ccc(F)cc2)cc1
5. CCOC(=O)C1CCCN(C(=O)c2ccccc2Oc2ccccc2)C1 (stereo not drawn)

Response:
[-3.31, -0.765, 95.1, 4.25, -6.35]
